- Target Entity: epithelial sodium channels (ENaC) (Canis lupus familiaris, UniProt A0A8I3MKE6+A0A8I3Q679+Q95165)
- Sequence (A0A8I3Q679 1-649): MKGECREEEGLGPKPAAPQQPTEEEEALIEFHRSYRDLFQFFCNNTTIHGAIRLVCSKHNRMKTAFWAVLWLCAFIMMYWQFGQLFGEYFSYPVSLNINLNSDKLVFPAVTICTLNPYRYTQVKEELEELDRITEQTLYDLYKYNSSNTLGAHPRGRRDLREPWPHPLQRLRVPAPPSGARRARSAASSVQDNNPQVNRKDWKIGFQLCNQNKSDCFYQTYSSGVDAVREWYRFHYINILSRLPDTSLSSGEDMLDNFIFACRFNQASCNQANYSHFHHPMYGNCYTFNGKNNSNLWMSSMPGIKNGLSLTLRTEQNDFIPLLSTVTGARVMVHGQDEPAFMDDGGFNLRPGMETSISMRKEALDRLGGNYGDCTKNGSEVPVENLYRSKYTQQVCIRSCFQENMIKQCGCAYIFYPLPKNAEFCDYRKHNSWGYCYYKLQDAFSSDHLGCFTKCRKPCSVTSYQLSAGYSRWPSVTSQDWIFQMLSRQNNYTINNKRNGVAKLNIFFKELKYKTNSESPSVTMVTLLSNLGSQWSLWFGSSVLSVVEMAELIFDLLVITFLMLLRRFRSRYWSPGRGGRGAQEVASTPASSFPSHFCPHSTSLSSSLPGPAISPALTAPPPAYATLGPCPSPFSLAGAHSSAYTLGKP
- Sequence (Q95165 whole entry): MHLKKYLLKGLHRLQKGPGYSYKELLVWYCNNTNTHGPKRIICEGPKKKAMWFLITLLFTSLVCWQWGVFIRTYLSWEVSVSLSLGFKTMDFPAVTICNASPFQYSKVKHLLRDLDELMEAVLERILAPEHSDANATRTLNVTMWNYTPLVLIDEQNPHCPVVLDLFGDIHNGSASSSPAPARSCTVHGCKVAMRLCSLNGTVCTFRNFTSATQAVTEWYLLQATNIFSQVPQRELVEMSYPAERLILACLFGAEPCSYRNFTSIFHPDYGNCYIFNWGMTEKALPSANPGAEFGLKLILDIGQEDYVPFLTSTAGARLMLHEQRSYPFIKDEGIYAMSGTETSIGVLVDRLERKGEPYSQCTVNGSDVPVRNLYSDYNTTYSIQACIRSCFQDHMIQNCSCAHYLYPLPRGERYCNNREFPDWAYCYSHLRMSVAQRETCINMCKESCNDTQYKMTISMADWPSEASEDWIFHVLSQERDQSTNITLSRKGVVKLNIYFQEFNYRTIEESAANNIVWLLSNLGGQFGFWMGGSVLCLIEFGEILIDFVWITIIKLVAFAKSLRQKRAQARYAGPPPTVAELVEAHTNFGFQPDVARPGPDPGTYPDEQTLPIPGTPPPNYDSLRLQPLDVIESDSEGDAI
- Sequence (A0A8I3MKE6 1-646): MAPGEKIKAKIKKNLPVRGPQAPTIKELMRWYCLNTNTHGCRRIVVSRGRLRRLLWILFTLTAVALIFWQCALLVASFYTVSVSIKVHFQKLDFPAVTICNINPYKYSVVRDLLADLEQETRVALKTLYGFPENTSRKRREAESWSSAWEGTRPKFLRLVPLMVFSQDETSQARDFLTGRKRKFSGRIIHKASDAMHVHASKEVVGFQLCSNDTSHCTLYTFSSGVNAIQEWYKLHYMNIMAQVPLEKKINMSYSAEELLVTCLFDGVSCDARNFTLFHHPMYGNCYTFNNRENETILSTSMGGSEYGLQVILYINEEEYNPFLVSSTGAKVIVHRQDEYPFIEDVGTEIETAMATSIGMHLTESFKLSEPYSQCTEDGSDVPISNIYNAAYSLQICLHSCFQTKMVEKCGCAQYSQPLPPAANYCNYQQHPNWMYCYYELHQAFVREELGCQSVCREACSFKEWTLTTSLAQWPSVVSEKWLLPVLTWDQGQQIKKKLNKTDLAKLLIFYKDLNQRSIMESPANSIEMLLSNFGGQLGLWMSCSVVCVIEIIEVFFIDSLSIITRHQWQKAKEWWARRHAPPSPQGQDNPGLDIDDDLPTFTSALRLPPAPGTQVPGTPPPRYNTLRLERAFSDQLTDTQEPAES
- Assay Notes: In vitro sodium channel blocking activity (short circuit current, Ussing chambers), dog airway cells
- Measurement Context: freshly excised cell from dog airways
Measurement Name: IC50 (nM)
Number only, in nM; omit the unit.

I have this molecule here, CC1OC[C@@H](O)[C@H]([C@H](O)[C@@H](O)CNCCCOc2ccc3cc(CCCCN)ccc3c2)O1 (stereo partly shown) [Compound 105] , and I need its recorded IC50.
23.5

Reference source: patent US8575176B2
